Experiment: recombinant UMI read abundance after kanamycin selection (control-corrected) (log10(CPM+1)); higher = more efficient recombination; extreme values may be limits of the assay; sequences stand for … in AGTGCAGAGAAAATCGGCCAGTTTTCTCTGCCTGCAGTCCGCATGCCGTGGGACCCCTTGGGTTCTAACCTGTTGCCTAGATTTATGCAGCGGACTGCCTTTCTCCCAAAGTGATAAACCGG…AGGTTGGTTTCACT; site = the 11-nt donor;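 note: IS621 bridge recombinase in Escherichia coli cells against a fixed T5 target plasmid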
Given measured recombinant UMI read abundance (log10), output Y if it is greater than or equal to 0.3 and N if not.

Here are 4 sequences together with their reported answers.
>>> class("AGGGCTACATGGACCGGTTTTCCCGGTAATCCGTATTTGCG (site AGGGCTACTCG)")
"Y"
>>> class("TGTTGCCCATGGACCGGTTTTCCCGGTAATCCGTATTTGTA (site TGTTCCCCTTA)")
"Y"
>>> class("CCGGCTACATGGACCGGTTTTCCCGGTAATCCGTATTTGAT (site CCGGCTACTAT)")
"Y"
>>> class("TAACCGGCATGGACCGGTTTTCCCGGTAATCCGTATTTGGT (site TAACCGGCTAC)")
"Y"

**Query** Entry TGCAAGTCATGGACCGGTTTTCCCGGTAATCCGTATTTGGC (site TGCAAGTCTGC) : is its recombinant UMI read abundance (log10) no less than 0.3?
**Result** Y

**Query** Dear colleague, could you confirm whether CGTTAGACATGGACCGGTTTTCCCGGTAATCCGTATTTGAA (site CGTTAGACTGT) has recombinant UMI read abundance (log10) at or above 0.3?
**Result** N

**Query** API: above_or_equal(metric=recombinant UMI read abundance (log10), cutoff=0.3) for item GATCTGCCATGGACCGGTTTTCCCGGTAATCCGTATTTGAT (site GATCTGCCTAT)
**Result** N

**Query** Is reported recombinant UMI read abundance (log10) greater than or equal to 0.3 here: AATGGATCATGGACCGGTTTTCCCGGTAATCCGTATTTGAA (site AATGGATCTTT)
**Result** Y

**Query** Identify whether the reported recombinant UMI read abundance (log10) of the following sequence is 0.3 or greater: CGAAGTACATGGACCGGTTTTCCCGGTAATCCGTATTTGCG (site CGAAGTACTCG)
**Result** Y

**Query** Could you verify whether the entry GCAGTCGCATGGACCGGTTTTCCCGGTAATCCGTATTTGCG (site GTAGTCGCTCG) shows recombinant UMI read abundance (log10) of no less than 0.3?
**Result** N

**Query** Quick check: does TACCCACCATGGACCGGTTTTCCCGGTAATCCGTATTTGAC (site TACCCACCTGT) have recombinant UMI read abundance (log10) greater than or equal to 0.3?
**Result** N

**Query** Hi team, for GGACTGGCATGGACCGGTTTTCCCGGTAATCCGTATTTGGT (site GGAGTGGCTAC) , is the recorded recombinant UMI read abundance (log10) at or above 0.3?
**Result** N

**Query** Given TCAGGGACATGGACCGGTTTTCCCGGTAATCCGTATTTGGG (site TCAGGGACTCC) , state whether its recombinant UMI read abundance (log10) is at least 0.3.
**Result** N

**Query** Given AAAATACCATGGACCGGTTTTCCCGGTAATCCGTATTTGAC (site AAAATACCTGT) , state whether its recombinant UMI read abundance (log10) is at least 0.3.
**Result** N

**Query** Reported recombinant UMI read abundance (log10) reaches at least 0.3 for GGGAAGGCATGGACCGGTTTTCCCGGTAATCCGTATTTGCA (site AGGAAGACTTG) ?
**Result** N

**Query** Item TAGCCTTCATGGACCGGTTTTCCCGGTAATCCGTATTTGAT (site TAGCCTTCTAT) with recombinant UMI read abundance (log10) of 0.3 or above?
**Result** N

**Query** Please tell me: is the sequence GGAGTCGCATGGACCGGTTTTCCCGGTAATCCGTATTTGCG (site GAAGTCGCTCG) at or over 0.3 in terms of recombinant UMI read abundance (log10)?
**Result** N

**Query** Check if recombinant UMI read abundance (log10) >= 0.3 (inclusive). Item: TAAAGTTCATGGACCGGTTTTCCCGGTAATCCGTATTTGTA (site TAAAGTGCTTA)
**Result** N

**Query** Exam item: decide whether the reported recombinant UMI read abundance (log10) for AGGAAGACATGGACCGGTTTTCCCGGTAATCCGTATTTGGT (site AGGAAGACTAC) is at least 0.3.
**Result** Y

**Query** # check: recombinant UMI read abundance (log10) of AGCTAAGCATGGACCGGTTTTCCCGGTAATCCGTATTTGGG (site AGCTTAGCTCC) is greater than or equal to 0.3
**Result** N

**Query** Entry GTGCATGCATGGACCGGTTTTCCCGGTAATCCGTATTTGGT (site GTGCCTGCTAC) : is its recombinant UMI read abundance (log10) no less than 0.3?
**Result** Y

**Query** Please check the record AGCTCAGCATGGACCGGTTTTCCCGGTAATCCGTATTTGAG (site AGCTCAGCTCT) and state if its recombinant UMI read abundance (log10) is at or above 0.3.
**Result** Y

**Query** Check the entry AACTTGACATGGACCGGTTTTCCCGGTAATCCGTATTTGCT (site CACTTGACTAG) : does recombinant UMI read abundance (log10) equal or exceed 0.3?
**Result** Y
